- targetUnderTest: T1, MAZ-GST (UniProt P56270 1-477)
- T1 sequence: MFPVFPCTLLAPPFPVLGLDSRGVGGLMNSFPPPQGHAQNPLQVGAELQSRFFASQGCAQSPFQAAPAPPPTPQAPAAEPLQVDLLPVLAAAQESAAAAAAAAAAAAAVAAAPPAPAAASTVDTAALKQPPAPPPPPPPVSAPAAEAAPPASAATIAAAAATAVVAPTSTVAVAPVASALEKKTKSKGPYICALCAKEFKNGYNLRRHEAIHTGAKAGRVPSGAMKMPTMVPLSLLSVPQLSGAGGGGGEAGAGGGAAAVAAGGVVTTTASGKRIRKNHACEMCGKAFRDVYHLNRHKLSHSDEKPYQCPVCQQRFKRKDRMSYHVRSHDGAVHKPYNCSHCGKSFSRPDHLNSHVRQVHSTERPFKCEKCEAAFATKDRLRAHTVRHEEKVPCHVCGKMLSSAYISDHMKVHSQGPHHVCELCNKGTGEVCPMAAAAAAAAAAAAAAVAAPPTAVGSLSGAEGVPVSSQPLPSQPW
- procedureText: double-filter binding; 100 mM KCl, 50 uM Zn acetate; Hill n = 1.6 ± 0.3; EMSA/filter: 20 mM Tris-HCl pH 8, 8% glycerol, 100 uM MgCl2, 50 uM Zn acetate, 1 mM DTT, 2.5 ng/ul poly dIdC, 1 mM Na3VO4, 5 mM NaF, KCl as stated (100 mM for filter binding); EMSA gel 20 C, filter 4 C 30 min; FRET: 50 mM Tris-HCl pH 7.4, 50 uM Zn acetate, 50 mM KCl, 37 C
- testParameters: protein: recombinant; tags: GST; label: 32P; antiparallel intramolecular G4
recordedEndpoint: Kd (nM)
# unit: nM | format: bare number

What value of Kd has been reported for the following binder? TCGGGTTGCGGGCGCAGGGCACGGGCG (structured_DNA) [hras-1 quadruplex]
504

Origin of values: paper PMC4117790
